Test system: OVCAR-4 ovarian
Measurement Notes: NCI tumour cell line growth inhibition, 48 h
For each entry below, report its TGI value.

Query: TGI; subject: CC(=O)O[C@H]1C[C@H](O[C@H]2[C@@H](O)C[C@H](O[C@H]3[C@@H](O)C[C@H](O[C@H]4CC[C@@]5(C)C(CCC6C5C[C@@H](O)[C@]5(C)[C@@H](C7=CC(=O)OC7)CC[C@]65O)C4)O[C@@H]3C)O[C@@H]2C)O[C@H](C)[C@H]1O[C@@H]1O[C@H](CO)[C@@H](O)[C@H](O)[C@H]1O (stereo partly drawn)
0.442 µM

Query: TGI; subject: CN1C(=O)C(O)CC1c1ccc(C(F)(F)F)cc1 (stereo not drawn)
> 100 µM

Query: TGI; subject: Nc1c(N2CCCCC2)c(=O)nc2[nH]/c(=C\c3ccco3)c(=O)n12
> 100 µM

Query: TGI; subject: Cn1ccnc1CCc1ccc(Cl)cc1Cl
> 100 µM

Query: TGI; subject: Cc1ccc(/C(O)=C/c2nc3ccccc3[nH]c2=O)cc1
4.04 µM

Query: TGI; subject: O=c1cc(N2CCOCC2)[nH]c(=O)n1-c1cccc(Cl)c1
> 100 µM

Query: TGI; subject: CCOC(=O)COc1ccc(OC)c2c1C(=O)CCC2
> 100 µM

Query: TGI; subject: Cc1ccc(N=Nc2c(O)c(C(=O)O)cc3ccccc23)c(S(=O)(=O)O)c1
> 100 µM

Query: TGI; subject: Cc1ccc(SC2=C(N(C)C)C(=O)c3ccccc3C2=O)cc1
24.8 µM

Query: TGI; subject: NCCN1C(=O)c2cc(Cl)c(Cl)cc2C1(O)c1ccc(Cl)cc1 (stereo not drawn)
4.24 µM

Query: TGI; subject: C/C(=N/NC(=O)c1ccccc1O)c1ccc(/C(C)=N\NC(=O)c2ccccc2O)c2nc3cc(C)c(C)cc3nc12
> 100 µM

Query: TGI; subject: CC(C)[C@@H](C)CC[C@@H](C)C1CC=C2[C@@H]3CCC4C[C@@H](O[Si](C)(C)C(C)(C)C)CC[C@]4(C)C3CC[C@@]21C (stereo partly drawn)
> 100 µM

Query: TGI; subject: O=c1cc(NNc2ccc(F)cc2)[nH]c(=O)[nH]1
21.4 µM

Query: TGI; subject: O=C(c1ccccc1)N(C(=S)NCCc1ccc(Cl)cc1)c1ccc(Cl)cc1
29.3 µM

Query: TGI; subject: C[n+]1c2ccccc2c2/c(=C\C#N)c3ccccc3n21
11.4 µM

Query: TGI; subject: COc1ccc(-c2nc(S(=O)(=O)c3ccccc3)c(S(=O)CC(=O)N3CCC(C)CC3)o2)cc1 (stereo not drawn)
13 µM

Query: TGI; subject: CN(C)c1ccc2nc3ccc(=[N+](C)C)c([N+](=O)[O-])c-3sc2c1
3.04 µM

Query: TGI; subject: COc1ccc(/C=C/c2cc(OC)cc(OC)c2)cc1
> 100 µM

Query: TGI; subject: CN1CCN(CCCOc2ccc3ncnc(Nc4ccc(OCc5cccc(F)c5)c(Cl)c4)c3c2)CC1
3.35 µM

Query: TGI; subject: CC(=O)Oc1c(C)cc2c(c1C)C(C)CN2C(C)=O (stereo not drawn)
> 100 µM

Query: TGI; subject: N[C@@H]1CCCC[C@@H]1N.O=P([O-])([O-])CNCP(=O)([O-])[O-].[Pt+2]
> 100 µM

Query: TGI; subject: COc1cccc(C2CC(=O)c3cc(N4CCCC4)ccc3N2)c1 (stereo not drawn)
> 100 µM

Query: TGI; subject: Cc1ccc2c(=O)cc(-c3ccc(Cl)cc3)[nH]c2n1
> 100 µM

Query: TGI; subject: NC(N)=N/N=C(/CCN1CCCC1)CC(c1ccccc1)c1c(O)c2ccccc2oc1=O (stereo not drawn)
> 100 µM

Query: TGI; subject: O=C(NC(N1CCN(c2cc3c(cc2F)c(=O)c(C(=O)O)cn3C2CC2)CC1)(C(F)(F)F)C(F)(F)F)c1ccccc1
> 100 µM

Query: TGI; subject: C=C1C(=O)O[C@H]2[C@H]1CC/C(COC(=O)NCc1ccc(Cn3c(=O)sn(CCCC)c3=O)cc1)=C\CC[C@@]1(C)O[C@@H]21
3.05 µM

Query: TGI; subject: COc1ccc(C(=O)N2N=C(c3ccc(Br)cc3)CC2c2cn(-c3ccccc3)nc2-c2ccccc2)cc1 (stereo not drawn)
> 50 µM

Query: TGI; subject: Cc1cc2nc(CS)[nH]c2cc1C
32 µM

Query: TGI; subject: NC12CC3C4CC5(N)CC3C(C1)C(C5)C4C2
> 100 µM

Query: TGI; subject: CC(=O)Oc1ccc2c3c1[C@H]1O[C@H]1c1cccc(c1-3)[C@@H]1O[C@H]21
18.6 µM

Query: TGI; subject: NC(N)=NCCCC(NC(=O)OCCCCCn1ccc(N)nc1=O)C(=O)O (stereo not drawn)
> 100 µM

Query: TGI; subject: COc1ccc2c3c([nH]c2c1)C(=O)c1nc(C)ccc1C3=O
> 100 µM

Query: TGI; subject: O=C1/C(=C/c2ccc(Cl)cc2Cl)CN(S(=O)(=O)c2ccccc2)C/C1=C\c1ccc(Cl)cc1Cl
> 96 µM

Query: TGI; subject: c1ccc(-c2n(Cc3ccc4ccccc4n3)cc[n+]2Cc2ccc3ccccc3n2)cc1
7.02 µM

Query: TGI; subject: CC(C)(O)C1CC[C@]2(C)CC[C@]3(C)[C@H](CC[C@@H]4[C@@]5(C)CC[C@H](O)C(C)(C)[C@@H]5CC[C@]43C)[C@@H]12 (stereo partly drawn)
78.3 µM

Query: TGI; subject: Cc1ncc(CSc2ccccc2N)c(CO)c1O
> 100 µM

Query: TGI; subject: Cc1cc(Cc2c(C)c(C)c(Cc3cc(C)cc(C(C)(C)C)c3O)c(C)c2C)c(O)c(C(C)(C)C)c1
> 100 µM

Query: TGI; subject: CC1=C(C(=O)OCCc2ccc([N+](=O)[O-])cc2)C(c2cccc([N+](=O)[O-])c2)C(C(=O)OC(C)C)=C(C)N1 (stereo not drawn)
> 100 µM

###

For each entry below, report its TGI value.
Tested on: MALME-3M melanoma
Measurement Notes: NCI tumour cell line growth inhibition, 48 h
Write down the numeric answer in µM and omit the unit.

Query: TGI; subject: c1ccc(CNc2ccc3[nH]c4cnccc4c3c2)cc1
35.8

Query: TGI; subject: CCOc1cc2ncc(C#N)c(Nc3ccc(F)c(Cl)c3)c2cc1NC(=O)CC1CCSS1 (centres undefined)
6.41

Query: TGI; subject: Cc1ccc2c(c1)C(=O)C(c1c(-c3[nH]c(=O)c4ccc(C)cc4c3O)c(O)c3ccccc3c1O)=NC2=O
3.54

Query: TGI; subject: C=C1C(=O)O[C@H]2[C@H]1CC/C(COC(=O)NCc1ccc(Cn3c(=O)sn(CCCC)c3=O)cc1)=C\CC[C@@]1(C)O[C@@H]21
3.32

###

For each entry below, report its TGI value.
Tested on: TK-10 renal
Measurement Notes: NCI tumour cell line growth inhibition, 48 h

Query: TGI; subject: Cc1ccc2c(=O)cc(-c3ccc(Cl)cc3)[nH]c2n1
> 100 µM

Query: TGI; subject: COc1ccc(-c2cc(-c3ccccc3)nc(N)c2-c2ccc3ccccc3c2)cc1
11.6 µM

Query: TGI; subject: Cc1cccc(C)c1NC(=O)/C=C/c1ccccc1
> 100 µM

Query: TGI; subject: Cn1ccnc1C(=O)/C=C/c1ccc(C(=O)Nc2ccc(F)cc2)cc1
7.49 µM

Query: TGI; subject: CCOc1c(OC)cc(C2c3cc4c(c(OCC)c3CC3COC(=O)C32)OCO4)cc1OC (stereo unspecified)
69.6 µM

Query: TGI; subject: CCc1n[nH]c(=S)n1/N=C/c1ccc(-c2ccc([N+](=O)[O-])cc2)o1
> 100 µM

Query: TGI; subject: OC1CC1Sc1ccccc1 (stereo unspecified)
> 100 µM

Query: TGI; subject: COC(=O)C1=C(C(=O)OC)C2(C3C(SC)=CC(C)(C)CC3S1)N(Cc1ccccc1)CCN2Cc1ccccc1 (stereo unspecified)
> 100 µM

Query: TGI; subject: CCN(CC)c1ccc(/C=C/C2=NN(c3cccc(S(=O)(=O)O)c3)C3(C2)SCC(=O)N3c2nc3ccccc3s2)cc1 (stereo unspecified)
94 µM

Query: TGI; subject: Cc1cc(Cc2c(C)c(C)c(Cc3cc(C)cc(C(C)(C)C)c3O)c(C)c2C)c(O)c(C(C)(C)C)c1
> 100 µM

Query: TGI; subject: CN1CCN(CCOc2ccc(-c3cnc4c(-c5cccc(F)c5F)cnn4c3)cc2)CC1
3.62 µM

Query: TGI; subject: CN1C(=O)C(O)CC1c1ccc(C(F)(F)F)cc1 (stereo unspecified)
> 100 µM

Query: TGI; subject: O=c1cc(N2CCOCC2)[nH]c(=O)n1-c1cccc(Cl)c1
> 100 µM

Query: TGI; subject: C=CCC(NCc1ccccc1)[C@H](OCc1ccccc1)[C@@H]1COC(C)(C)O1 (stereo partly specified)
70.8 µM

Query: TGI; subject: O=C(Cn1nnc(-c2ccccc2)n1)N/N=C/c1cn(Cc2ccc(Cl)cc2Cl)c2ccccc12
> 100 µM

Query: TGI; subject: COc1ccc2cnc(N)c(C#Cc3cc(C(=O)Nc4ccc(CN5CCN(C)CC5)c(C(F)(F)F)c4)cnc3C)c2c1
12.4 µM

Query: TGI; subject: COc1ccccc1C=NC12CC3CC(CC(C3)C1)C2
> 100 µM

Query: TGI; subject: C/C(=N/NC(=O)c1ccccc1O)c1ccc(/C(C)=N\NC(=O)c2ccccc2O)c2nc3cc(C)c(C)cc3nc12
> 100 µM

Query: TGI; subject: Nc1ncnc2c1ncn2C1OC(CSC(F)F)C(O)C1O (stereo unspecified)
> 100 µM

Query: TGI; subject: CCc1c(-c2ccccc2)[nH]c2ccccc2c1=O
> 100 µM

Query: TGI; subject: CCOC(=O)N1CCC2(CC1)CC(=O)N(Nc1ccccc1)C2=O
> 100 µM
